Test system: 653999-131-R-J2-PDC complex spheroids, growth inhibition
Experiment: Anticancer human tumor 653999-131-R-J2-PDC patient-derived lung adenocarcinoma cell line growth inhibition [RAS]
Settings: second compound 1 µM; first compound 3.16 µM; stronger effect = lower value
Recorded viability, T/C by entry
Form entry: value (%) — number only.

Example entries begin here.
Cc1nc(N2CCC3(CC2)COC(C)C3N)c(CO)nc1Sc1ccnc(N)c1Cl (centres undefined) + C=CC(=O)N1CCN(c2nc(OCC3CCCN3C)nc3c(F)c(-c4nc(N)cc(C)c4C(F)(F)F)c(Cl)cc23)C(C)C1 ... 67.3
CC(C)NCC(C(=O)N1CCN(c2ncnc3c2C(C)CC3O)CC1)c1ccc(Cl)cc1 (centres undefined) + C=CC(=O)N1CCN(c2nc(OCC3CCCN3C)nc3c(F)c(-c4nc(N)cc(C)c4C(F)(F)F)c(Cl)cc23)C(C)C1 ... 43.5
CC(Nc1ccc2c(c1)OCCn1cc(N3C(=O)OCC3C(F)F)nc1-2)C(N)=O (centres undefined) + C=CC(=O)N1CCN(c2nc(OCC3CCCN3C)nc3c(F)c(-c4nc(N)cc(C)c4C(F)(F)F)c(Cl)cc23)C(C)C1 ... 41.3

Q. Request - read-out viability, T/C | tested on 653999-131-R-J2-PDC complex spheroids, growth inhibition | compound NC1c2ccccc2OC12CCN(c1cnc3c(N4CCCc5ncccc54)n[nH]c3n1)CC2 (centres undefined) + C#Cc1c(F)ccc2cc(O)cc(-c3ncc4c(N5CC6CCC(C5)N6)nc(OCC56CCCN5CC(F)C6)nc4c3F)c12
A. 32.7

Q. Form field - read-out: viability, T/C; system: 653999-131-R-J2-PDC complex spheroids, growth inhibition; submitted item: CC(Nc1ccc2c(c1)OCCn1cc(N3C(=O)OCC3C(F)F)nc1-2)C(N)=O (centres undefined) + C#Cc1c(F)ccc2cc(O)cc(-c3ncc4c(N5CC6CCC(C5)N6)nc(OCC56CCCN5CC(F)C6)nc4c3F)c12
A. 19

Q. What viability, T/C appears in the records for this compound with 653999-131-R-J2-PDC complex spheroids, growth inhibition? CC(C)NCC(C(=O)N1CCN(c2ncnc3c2C(C)CC3O)CC1)c1ccc(Cl)cc1 (centres undefined) + C#Cc1c(F)ccc2cc(O)cc(-c3ncc4c(N5CC6CCC(C5)N6)nc(OCC56CCCN5CC(F)C6)nc4c3F)c12
A. 19.4

Q. // fetch 653999-131-R-J2-PDC complex spheroids, growth inhibition viability, T/C for Cc1nc(N2CCC3(CC2)COC(C)C3N)c(CO)nc1Sc1ccnc(N)c1Cl (centres undefined) + C#Cc1c(F)ccc2cc(O)cc(-c3ncc4c(N5CC6CCC(C5)N6)nc(OCC56CCCN5CC(F)C6)nc4c3F)c12
A. 30.5

Q. State its viability, T/C on 653999-131-R-J2-PDC complex spheroids, growth inhibition: CCC(CC)c1cc(NC2CCC(N)C2)n2nccc2n1 (centres undefined) + C=CC(=O)N1CCN(c2nc(OCC3CCCN3C)nc3c(F)c(-c4nc(N)cc(C)c4C(F)(F)F)c(Cl)cc23)C(C)C1
A. 13.8

Q. Recorded viability, T/C for CCC(CC)c1cc(NC2CCC(N)C2)n2nccc2n1 (centres undefined) + C#Cc1c(F)ccc2cc(O)cc(-c3ncc4c(N5CC6CCC(C5)N6)nc(OCC56CCCN5CC(F)C6)nc4c3F)c12 with 653999-131-R-J2-PDC complex spheroids, growth inhibition, please?
A. 10.7

====

System: 653999-131-R-J2-PDC complex spheroids, growth inhibition
Assay: Anticancer human tumor 653999-131-R-J2-PDC cell line growth inhibition [RAS];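 note: spheroids exposed to the agents for seven days before the readout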
Conditions: second compound 0.1 µM; first compound 0.0316 µM; stronger effect = lower value
MEASURED_METRIC: viability, T/C

CC(=O)OC12COC1CC(O)C1(C)C(=O)C(O)C3=C(C)C(OC(=O)C(O)C(NC(=O)OC(C)(C)C)c4ccccc4)CC(O)(C(OC(=O)c4ccccc4)C21)C3(C)C (centres undefined) + C=CC(=O)N1CCN(c2nc(OCC3CCCN3C)nc3c(F)c(-c4nc(N)cc(C)c4C(F)(F)F)c(Cl)cc23)C(C)C1 ... 59.5%
CC1(O)CCCC1n1c(=O)c(C(F)F)cc2cnc(NC3CCN(S(C)(=O)=O)CC3)nc21 (centres undefined) + C#Cc1c(F)ccc2cc(O)cc(-c3ncc4c(N5CC6CCC(C5)N6)nc(OCC56CCCN5CC(F)C6)nc4c3F)c12 ... 69.4%
CCN1CCN(Cc2ccc(Nc3ncc(F)c(-c4cc(F)c5nc(C)n(C(C)C)c5c4)n3)nc2)CC1 + C=CC(=O)N1CCN(c2nc(OCC3CCCN3C)nc3c(F)c(-c4nc(N)cc(C)c4C(F)(F)F)c(Cl)cc23)C(C)C1 ... 67.6%

Please examine the following record next.
Q. Using the record for Cc1nc(N2CCC3(CC2)COC(C)C3N)c(CO)nc1Sc1ccnc(N)c1Cl (centres undefined) + C#Cc1c(F)ccc2cc(O)cc(-c3ncc4c(N5CC6CCC(C5)N6)nc(OCC56CCCN5CC(F)C6)nc4c3F)c12 , report its viability, T/C.
A. 65.3%

====

Test system: 653999-131-R-J2-PDC complex spheroids, growth inhibition
Assay: Anticancer human tumor 653999-131-R-J2-PDC cell line growth inhibition [RAS];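 note: spheroids exposed to the agents for seven days before the readout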
Details: curve of first compound; second compound 0.03 µM
MEASURED_METRIC: IC50 (µM)
Give the value in µM but do not write µM after it.

Q. What does the data say about its IC50? Entry: CCC(CC)c1cc(NC2CCC(N)C2)n2nccc2n1 (configuration not stated) + CCn1c(-c2cccnc2C(C)OC)c2c3cc(ccc31)N1CCOC(CC(NC(=O)C(C(C)C)N(C)C(=O)C3(F)CCN(C(=O)C#CC(C)(C)N(C)C)CC3)C(=O)N3CCCC(N3)C(=O)OCC(C)(C)C2)C1
A. 2.09

====

System: 653999-131-R-J2-PDC complex spheroids, growth inhibition
Assay: Anticancer human tumor 653999-131-R-J2-PDC cell line growth inhibition [RAS];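 note: spheroids exposed to the agents for seven days before the readout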
Conditions: second compound 0.316 µM; first compound 0.01 µM; stronger effect = lower value
Could you please mark condition met for values of viability, T/C below 60% and condition not met for values at or above it?

Q. Decide: viability, T/C of CCN1CCN(Cc2ccc(Nc3ncc(F)c(-c4cc(F)c5nc(C)n(C(C)C)c5c4)n3)nc2)CC1 + C=CC(=O)N1CCN(c2nc(OCC3CCCN3C)nc3c(F)c(-c4nc(N)cc(C)c4C(F)(F)F)c(Cl)cc23)C(C)C1 strictly below 60%?
A. condition not met

Q. Determine whether this compound shows viability, T/C lower than 60% (ties excluded): CCN1CCN(Cc2ccc(Nc3ncc(F)c(-c4cc(F)c5nc(C)n(C(C)C)c5c4)n3)nc2)CC1 + C#Cc1c(F)ccc2cc(O)cc(-c3ncc4c(N5CC6CCC(C5)N6)nc(OCC56CCCN5CC(F)C6)nc4c3F)c12
A. condition not met

Q. I wonder whether CC(C)n1nc(-c2ccc3oc(N)nc3c2)c2c(N)ncnc21 + C#Cc1c(F)ccc2cc(O)cc(-c3ncc4c(N5CC6CCC(C5)N6)nc(OCC56CCCN5CC(F)C6)nc4c3F)c12 has viability, T/C below 60%. Can you tell?
A. condition met

Q. Strictly below 60%: is that where viability, T/C of C=CC(=O)N1CCN(c2nc(OCC3CCCN3C)nc3c(F)c(-c4nc(N)cc(C)c4C(F)(F)F)c(Cl)cc23)C(C)C1 (stereo unspecified) + C#Cc1c(F)ccc2cc(O)cc(-c3ncc4c(N5CC6CCC(C5)N6)nc(OCC56CCCN5CC(F)C6)nc4c3F)c12 sits?
A. condition not met

Q. Given Nc1ccn(C2OC(CO)C(O)C2(F)F)c(=O)n1 (stereo unspecified) + C#Cc1c(F)ccc2cc(O)cc(-c3ncc4c(N5CC6CCC(C5)N6)nc(OCC56CCCN5CC(F)C6)nc4c3F)c12 , is recorded viability, T/C strictly lower than 60%?
A. condition met

Q. Record O=C(c1ccc(F)c(F)c1Nc1ccc(I)cc1F)N1CC(O)([C@@H]2CCCCN2)C1 + C=CC(=O)N1CCN(c2nc(OCC3CCCN3C)nc3c(F)c(-c4nc(N)cc(C)c4C(F)(F)F)c(Cl)cc23)C(C)C1 : is its viability, T/C strictly below 60%?
A. condition not met

====

Tested on: 653999-131-R-J2-PDC complex spheroids, growth inhibition
Test: Anticancer human tumor 653999-131-R-J2-PDC cell line growth inhibition [RAS];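 note: spheroids exposed to the agents for seven days before the readout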
Settings: second compound 0.01 µM; first compound 0.0316 µM; stronger effect = lower value
Listed here: items and their measured viability, T/C.
Numeric answer only, unit % assumed.

Recorded results for 4 compounds are shown here.
Cc1nc(N2CCC3(CC2)COC(C)C3N)c(CO)nc1Sc1ccnc(N)c1Cl (stereo not given) + C=CC(=O)N1CCN(c2nc(OCC3CCCN3C)nc3c(F)c(-c4nc(N)cc(C)c4C(F)(F)F)c(Cl)cc23)C(C)C1 ... 90.5
CC(Nc1ccc2c(c1)OCCn1cc(N3C(=O)OCC3C(F)F)nc1-2)C(N)=O (stereo not given) + C=CC(=O)N1CCN(c2nc(OCC3CCCN3C)nc3c(F)c(-c4nc(N)cc(C)c4C(F)(F)F)c(Cl)cc23)C(C)C1 ... 104
CC(C)n1nc(-c2ccc3oc(N)nc3c2)c2c(N)ncnc21 + C=CC(=O)N1CCN(c2nc(OCC3CCCN3C)nc3c(F)c(-c4nc(N)cc(C)c4C(F)(F)F)c(Cl)cc23)C(C)C1 ... 35
C=CC(=O)Nc1cc(Nc2nccc(-c3cn(C)c4ccccc34)n2)c(OC)cc1N(C)CCN(C)C + C=CC(=O)N1CCN(c2nc(OCC3CCCN3C)nc3c(F)c(-c4nc(N)cc(C)c4C(F)(F)F)c(Cl)cc23)C(C)C1 ... 79.5

We now examine a further compound.
Q. Reported viability, T/C for C[C@@H](NC(=O)c1ncnc(N)c1Cl)c1ncc(C(=O)Nc2cc(C(F)(F)F)c(Cl)cn2)s1 + C=CC(=O)N1CCN(c2nc(OCC3CCCN3C)nc3c(F)c(-c4nc(N)cc(C)c4C(F)(F)F)c(Cl)cc23)C(C)C1 : what is it?
A. 127
